Molecular target: CCR2 (Homo sapiens, UniProt P41597)
Construct: Membranes were prepared from THP-1 cells; endogenous in cells
Sequence (P41597 whole entry): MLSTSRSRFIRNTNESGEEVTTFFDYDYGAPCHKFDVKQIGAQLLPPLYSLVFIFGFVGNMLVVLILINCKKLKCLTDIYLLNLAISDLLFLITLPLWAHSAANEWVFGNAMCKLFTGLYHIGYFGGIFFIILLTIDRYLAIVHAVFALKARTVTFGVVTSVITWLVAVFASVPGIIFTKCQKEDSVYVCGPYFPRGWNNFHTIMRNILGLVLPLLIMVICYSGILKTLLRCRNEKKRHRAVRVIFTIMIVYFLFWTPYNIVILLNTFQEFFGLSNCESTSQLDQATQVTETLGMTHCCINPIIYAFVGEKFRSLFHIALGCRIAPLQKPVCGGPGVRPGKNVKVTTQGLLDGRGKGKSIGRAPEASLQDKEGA
Test: CCR2 receptor membrane binding assay ([125I]MCP-1, THP-1 cell membranes, SPA beads)
Details: THP-1 membranes, [125I]MCP-1, bound radioactivity determined after 8 h; read-out: hKi
RECORDED_METRIC: pKi
// pKi is dimensionless: -log10 of concentration (M)

[
  {
    "MOLECULE": "CO[C@@H]1COCC[C@@H]1NC1CCN(C(=O)c2ncnc(N3CCc4ccc(Cl)cc4C3)c2C)CC1",
    "MEASUREMENT": 7.66
  },
  {
    "MOLECULE": "Cc1cccc(C2CCN(c3ncnc(C(=O)N4CCC(N5CCC(N(C)S(C)(=O)=O)CC5)CC4)c3C)CC2)c1",
    "MEASUREMENT": 5.87
  },
  {
    "MOLECULE": "COC1COCCC1NC1CCN(C(=O)c2ncnc(N3CCC(c4ccccc4C(F)(F)F)C3)c2C)CC1 (stereo not shown)",
    "MEASUREMENT": 6.79
  },
  {
    "MOLECULE": "CO[C@@H]1COCC[C@@H]1NC1CCN(C(=O)c2ncnc(N3CCC4(CCc5cc(Br)ccc5O4)CC3)c2C)CC1 [Example 62am]",
    "MEASUREMENT": 7.92
  },
  {
    "MOLECULE": "Cc1c(C(=O)N2CCC(N3CCC(N(C)S(C)(=O)=O)CC3)CC2)ncnc1N1CCOC(c2ccc(Cl)cc2)C1 (stereo not shown)",
    "MEASUREMENT": 5.43
  },
  {
    "MOLECULE": "COC1COCCC1NC1CCN(C(=O)c2ncnc(N3CCC4(CC3)CC(=O)c3ccccc3O4)c2C)CC1 (stereo not shown) [Example 62h]",
    "MEASUREMENT": 6.01
  }
]

We next turn to a different molecule, shown below.
For CO[C@@H]1COCC[C@@H]1NC1CCN(C(=O)c2ncnc(N3CCc4cc(C(F)(F)F)ccc4C3)c2C)CC1 [Example 69p] the molecule record lists pKi as 8.22

* * *

Target: CCR2 (Homo sapiens, UniProt P41597)
Construct: Membranes were prepared from THP-1 cells; endogenous in cells
Assay: CCR2 receptor membrane binding assay ([125I]MCP-1, THP-1 cell membranes, SPA beads)
Details: THP-1 membranes, [125I]MCP-1, bound radioactivity determined after 8 h; read-out: hKi
Below, each of the compounds is paired with its reported pKi value.
// pKi is dimensionless: -log10 of concentration (M)

// below: answered compounds
[
  {
    "COMPOUND": "COC1COCCC1NC1CCN(C(=O)c2ncnc(N3CCN(c4ccccc4Cl)CC3)c2C)CC1 (stereo not shown) [Example 62aa]",
    "ASSAYED_SYSTEM": "CCR2 (Homo sapiens, UniProt P41597)",
    "pKi": 7.05
  },
  {
    "COMPOUND": "Cc1c(C(=O)N2CCC(N[C@H]3CCOC[C@H]3F)CC2)ncnc1N1COc2ccc(C(F)(F)F)cc2C1 [Example 69o]",
    "ASSAYED_SYSTEM": "CCR2 (Homo sapiens, UniProt P41597)",
    "pKi": 8.00
  },
  {
    "COMPOUND": "CCN(CC)C1CCN(C(=O)c2ncnc(N3CCc4ccc(C(F)(F)F)cc4C3)c2C)C1 (stereo not shown)",
    "ASSAYED_SYSTEM": "CCR2 (Homo sapiens, UniProt P41597)",
    "pKi": 6.18
  }
]

We next turn to a different compound, shown below.
For COc1ccc(C2CCN(c3ncnc(C(=O)N4CCC(N5CCC(N(C)S(C)(=O)=O)CC5)CC4)c3C)CC2)cc1 the compound record lists pKi as 5.36

* * *

Target: CCR2 (Homo sapiens)
Construct: Membranes were prepared from THP-1 cells; endogenous in cells
Experiment: CCR2 receptor membrane binding assay ([125I]MCP-1, THP-1 cell membranes, SPA beads)
Conditions: THP-1 membranes, [125I]MCP-1, bound radioactivity determined after 8 h; read-out: hKi
pKi: −log10 of the molar value.
Could you label it 1.0 if measured pKi is 7 or higher, and 0.0 otherwise?

The following compounds have reported results that may help.
[
  {
    "COMPOUND": "COC1COCCC1NC1CCN(C(=O)c2ncnc(N3Cc4ccccc4C4(CC4)C3)c2C)CC1 (stereo not drawn) [Example 62l]",
    "QUALITATIVE_LABEL": 0.0
  },
  {
    "COMPOUND": "Cc1c(C(=O)N2CCC(N3CCC(N(C)S(C)(=O)=O)CC3)CC2)ncnc1N1CCCCC1c1cccc(Cl)c1 (stereo not drawn)",
    "QUALITATIVE_LABEL": 0.0
  },
  {
    "COMPOUND": "COC1COCCC1NC1CCN(C(=O)c2ncnc(N3CCc4ccc(F)cc4C3)c2C)CC1 (stereo not drawn)",
    "QUALITATIVE_LABEL": 1.0
  },
  {
    "COMPOUND": "COC1COCCC1NC1CCN(C(=O)c2ncnc(N3CCC(c4ccc(C)cc4)CC3)c2C)CC1 (stereo not drawn)",
    "QUALITATIVE_LABEL": 0.0
  }
]

Req: Is pKi at least 7? Consider Cc1c(C(=O)N2CCCN(CCO)CC2)ncnc1N1CCc2ccc(C(F)(F)F)cc2C1
Resp: 0.0

Req: Is pKi at least 7? Consider COc1nc(C(=O)N2CCC(NC3CCOCC3)CC2)c(C)c(N2CCc3ccc(C(F)(F)F)cc3C2)n1 [Example 69w]
Resp: 1.0

Req: Is pKi at least 7? Consider CO[C@@H]1COCC[C@@H]1NC1CCN(C(=O)c2ccnc(N3CCc4ccc(C(F)(F)F)cc4C3)c2C)CC1 [Example 69a]
Resp: 1.0

Req: Is pKi at least 7? Consider COC1COCCC1NC1CCN(C(=O)c2ncnc(N3CCCC4(CCCCC4)C3)c2C)CC1 (stereo not drawn) [Example 62f]
Resp: 0.0

Req: Is pKi at least 7? Consider COC1COCCC1NC1CCN(C(=O)c2ncnc(N3CCC(c4ccccc4C(F)(F)F)CC3)c2C)CC1 (stereo not drawn)
Resp: 0.0

Req: Is pKi at least 7? Consider COC1COCCC1NC1CCN(C(=O)c2ncnc(N3CCC(c4ccccc4)CC3)c2C)CC1 (stereo not drawn)
Resp: 0.0

Req: Is pKi at least 7? Consider Cc1c(C(=O)N2CCC(N3CCC(N(C)S(C)(=O)=O)CC3)CC2)ncnc1N1CCC(c2cccc(C(F)(F)F)c2)CC1
Resp: 0.0

Req: Is pKi at least 7? Consider Cc1c(C(=O)N2CCC(NC3CCOCC3F)CC2)ncnc1N1CCc2ccc(C(F)(F)F)cc2C1 (stereo not drawn) [Example 69k]
Resp: 1.0

Req: Is pKi at least 7? Consider COc1nc(C(=O)N2CCC(NC3CCOCC3F)CC2)c(C)c(N2CCc3ccc(C(F)(F)F)cc3C2)n1 (stereo not drawn) [Example 69s]
Resp: 1.0
